Can you tell me protein stability index for the items I'm about to list?
B1: RTN1 (parent)
chain: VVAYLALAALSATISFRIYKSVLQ

- Variants of: B1
- assay method text: protein stability index of a GFP-peptide fusion (GPS, HEK-293T) (PSI 1-6); higher = more stable;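 also: lentivirally expressed fusions sorted by FACS into six bins by GFP to DsRed ratio, PSI derived from sequencing read proportions per bin multiplied by bin number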
- experimental parameters: c terminus: a fixed tail appended
One number for each entry.

Example results:
**Query** Endpoint output: protein stability index of A3F . Value?
**Result** 2.82

**Query** Now this one: L5T
**Result** 2.43

**Query** And then A9S , what is it?
**Result** 2.41

**Query** Another: L23Q
**Result** 1.9

**Query** Thanks! And K20M ?
**Result** 3.61

Provide reported protein stability index for each item, in the same order as listed.
1. A6E
2. A8N
3. Y4M
4. A6F
5. Y4G
6. I18L

**Result**
1: 2.6; 2: 1.69; 3: 2.6; 4: 3.07; 5: 4.1; 6: 1.99

Where do these numbers come from? They come from the supplement of paper PMC10567573.
